Reported viscosity values for the following compounds.
# cond: 278.15 K; 101.33 kPa; Liquid; Cone and plate viscometry

[
  {
    "compound": "CCCC[P+](CC)(CC)CC.O=[N+]([O-])c1cn[n-]c1 [butyltriethylphosphonium 4-nitropyrazolide]",
    "unit.spec": "mPa·s",
    "viscosity": 840
  },
  {
    "compound": "CCCCCCn1cc[n+](C)c1.N#Cc1ccc[n-]1 [1-hexyl-3-methylimidazolium 2-cyanopyrrolide]",
    "unit.spec": "mPa·s",
    "viscosity": 1540
  },
  {
    "compound": "CCCCCCn1cc[n+](C)c1C.O=[N+]([O-])c1cn[n-]c1 [1-hexyl-2,3-dimethylimidazolium 4-nitropyrazolide]",
    "unit.spec": "mPa·s",
    "viscosity": 14600
  },
  {
    "compound": "CCCCCCCC[P+](CC)(CC)CC.O=[N+]([O-])c1c[n-]cn1 [triethyloctylphosphonium 4-nitroimidazolide]",
    "unit.spec": "mPa·s",
    "viscosity": 1220
  },
  {
    "compound": "CCCCCCCCSC(N(C)C)=[N+](C)C.O=S(=O)([N-]S(=O)(=O)C(F)(F)F)C(F)(F)F",
    "unit.spec": "mPa·s",
    "viscosity": 356
  },
  {
    "compound": "CCCCCCCCC[P+](CC)(CC)CC.O=[N+]([O-])c1cn[n-]c1 [triethylnonylphosphonium 4-nitropyrazolide]",
    "unit.spec": "mPa·s",
    "viscosity": 1370
  },
  {
    "compound": "CCCCCCCCCC[P+](CC)(CC)CC.O=[N+]([O-])c1cn[n-]c1 [decyltriethylphosphonium 4-nitropyrazolide]",
    "unit.spec": "mPa·s",
    "viscosity": 1620
  },
  {
    "compound": "CCCCCCCCCCCCCC[P+](CCCCCC)(CCCCCC)CCCCCC.O=[N+]([O-])c1c[n-]cn1 [trihexyl(tetradecyl)phosphonium 4-nitroimidazolide]",
    "unit.spec": "mPa·s",
    "viscosity": 3380
  },
  {
    "compound": "CCOCc1n(CC)cc[n+]1C.O=S(=O)([N-]S(=O)(=O)C(F)(F)F)C(F)(F)F",
    "unit.spec": "mPa·s",
    "viscosity": 207
  },
  {
    "compound": "CCCCCCCC[P+](CC)(CC)CC.O=S(=O)([N-]S(=O)(=O)C(F)(F)F)C(F)(F)F [triethyloctylphosphonium bis(trifluoromethylsulfonyl)imide]",
    "unit.spec": "mPa·s",
    "viscosity": 379
  },
  {
    "compound": "CCCCCCCCCCCCCC[P+](CCCCCC)(CCCCCC)CCCCCC.Clc1nc[n-]c1Cl [trihexyl(tetradecyl)phosphonium 4,5-dichloroimidazolide]",
    "unit.spec": "mPa·s",
    "viscosity": 4040
  },
  {
    "compound": "CCCCCCCCCCCCCC[P+](CCCCCC)(CCCCCC)CCCCCC.O=S(=O)([N-]S(=O)(=O)C(F)(F)F)C(F)(F)F",
    "unit.spec": "mPa·s",
    "viscosity": 1210
  },
  {
    "compound": "CCCC[P+](CC)(CC)CC.Cc1ncc([N+](=O)[O-])[n-]1 [butyltriethylphosphonium 2-methyl-5-nitroimidazolide]",
    "unit.spec": "mPa·s",
    "viscosity": 2180
  },
  {
    "compound": "CCC[n+]1ccn(C)c1C.O=[N+]([O-])c1cn[n-]c1 [1,2-dimethyl-3-propylimidazolium 4-nitropyrazolide]",
    "unit.spec": "mPa·s",
    "viscosity": 9610
  },
  {
    "compound": "CC[P+](CC)(CC)COCCOC.O=S(=O)([N-]S(=O)(=O)C(F)(F)F)C(F)(F)F",
    "unit.spec": "mPa·s",
    "viscosity": 84
  },
  {
    "compound": "CCCCCCCC[P+](CC)(CC)CC.O=[N+]([O-])c1cn[n-]c1 [triethyloctylphosphonium 4-nitropyrazolide]",
    "unit.spec": "mPa·s",
    "viscosity": 1100
  },
  {
    "compound": "CC(=O)[O-].CCCCCCCCCCCCCC[P+](CCCCCC)(CCCCCC)CCCCCC [trihexyl(tetradecyl)phosphonium acetate]",
    "unit.spec": "mPa·s",
    "viscosity": 1820
  },
  {
    "compound": "CC[P+](CC)(CC)COCCOC.O=[N+]([O-])c1cn[n-]c1",
    "unit.spec": "mPa·s",
    "viscosity": 309
  },
  {
    "compound": "CCCCCCCCCCCCCC[P+](CCCCCC)(CCCCCC)CCCCCC.N#Cc1nc[n-]c1C#N [trihexyl(tetradecyl)phosphonium 4,5-dicyanoimidazolide]",
    "unit.spec": "mPa·s",
    "viscosity": 2490
  },
  {
    "compound": "CCCCCCCC[P+](CC)(CC)CC.Cc1ncc([N+](=O)[O-])[n-]1 [triethyloctylphosphonium 2-methyl-5-nitroimidazolide]",
    "unit.spec": "mPa·s",
    "viscosity": 3720
  },
  {
    "compound": "CCCCCCCCCCCCCC[P+](CCCCCC)(CCCCCC)CCCCCC.Cc1ncc([N+](=O)[O-])[n-]1 [trihexyl(tetradecyl)phosphonium 2-methyl-5-nitroimidazolide]",
    "unit.spec": "mPa·s",
    "viscosity": 5890
  },
  {
    "compound": "CCCCCCC[P+](CC)(CC)CC.O=[N+]([O-])c1cn[n-]c1 [triethylheptylphosphonium 4-nitropyrazolide]",
    "unit.spec": "mPa·s",
    "viscosity": 1000
  },
  {
    "compound": "CC(=O)[O-].CCCCCCn1cc[n+](C)c1 [3-hexyl-1-methylimidazolium acetate]",
    "unit.spec": "mPa·s",
    "viscosity": 12300
  },
  {
    "compound": "CCCC[n+]1cccn1C.O=S(=O)([N-]S(=O)(=O)C(F)(F)F)C(F)(F)F [1-butyl-2-methylpyrazolium bis(trifluoromethylsulfonyl)imide]",
    "unit.spec": "mPa·s",
    "viscosity": 214
  },
  {
    "compound": "CCCCCCn1cc[n+](C)c1.O=[N+]([O-])c1cn[n-]c1 [1-hexyl-3-methylimidazolium 4-nitropyrazolide]",
    "unit.spec": "mPa·s",
    "viscosity": 3310
  },
  {
    "compound": "CCCC[S+]1CCCCC1.O=S(=O)([N-]S(=O)(=O)C(F)(F)F)C(F)(F)F [1-butylthianium bis(trifluoromethylsulfonyl)imide]",
    "unit.spec": "mPa·s",
    "viscosity": 398
  }
]

Data credit: the NIST ThermoML archive (doi:10.1021/acs.jced.6b00269)
